study_system: T1, canine OX40L, full length membrane form, expressed on HEK293 cells (canine)
T1 construct: also called OX40L expressing HEK; HEK OX40L cells
T1 chain: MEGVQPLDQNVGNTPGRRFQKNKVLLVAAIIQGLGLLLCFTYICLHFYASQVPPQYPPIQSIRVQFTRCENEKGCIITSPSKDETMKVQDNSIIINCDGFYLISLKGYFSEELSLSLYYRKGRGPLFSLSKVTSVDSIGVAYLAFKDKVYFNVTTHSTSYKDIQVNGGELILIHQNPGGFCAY
method_summary: flow cytometry
Reported GEO mean OX40L expressing HEK values follow for various binders
measurement_kind: GEO mean OX40L expressing HEK

PMX086 (antibody, V domains shown) VH: EVQLVESGGDLVKPGGSLRLSCVASGFTFSSYHMSWVRQAPGKGLQWVAFINSAESSTTYADAVKGRFTISRDNAKNTLYLQMNSLRAEDTAVYYCAGGYIWTHFDYWGQGTLVTVSS VL: SYVLTQLPSVSVTLRQTARITCGGDIIGSKSVYWYQQNLGQAPVLIIYRDTNRPTGIPERFSGASSGNTATLTISGALAEDEADYYCQVWDSSTSVFGGGTHLTVL
857000
PMX027 (antibody, V domains shown, also called PMX27) VH: EVHLVESGGDLVKPGGSLRLSCVASGFTFSTYHMSWVRQAPGKGLQWVAFINAGEISTNYADAVKGRFTISRDNAKNIFYLQMNSLRAEDTAVYYCATGHIWIRPFDYWGQGTLVTVSS VL: SYVLTQLPSMSVTLRQTARITCEGNSIGRKRVNWYQQKLGQVPVLIIYDDDSRPSGIPERFSGANSGNTATLTISGALAEDEAEYYCQVWDSSNNWVFGEGTQLTVL
1.65e+06

Where do the numbers come from? From patent US20250340659A1.
